Tested on: HMOX1
testDescription: HMOX1 Protein Assay (immunostaining of HO-1 in NHLF cells, GE InCell 1000)
Format: cell-based
conditionContext: Homo sapiens, fold change above DMSO treated cells, 5 μM compound, 16 h
Below is a list of entries, each paired with its recorded fold induction at 5 µM value.
Keep the answer to the number alone.

In: Form: Entry = CCOC(C)CNC(=O)c1ccc2c(c1)nc(Nc1nc3ccc(OC(F)(F)F)cc3s1)n2C (centres unmarked) [Example 54] | System = HMOX1 | fold induction at 5 µM = ____
Out: 18.5

In: Observed fold induction at 5 µM on HMOX1 for Cn1c(Nc2nc3ccc(OC(F)(F)F)cc3s2)nc2cc(C(=O)NCCCO)ccc21 [Example 13] , please.
Out: 20.1

In: Requested read-out fold induction at 5 µM, target or system HMOX1, entry COCCn1c(Nc2nc3ccc(Cl)cc3s2)nc2cc(C(=O)NCC(=O)N(C)C)ccc21 [Example 366]
Out: 18.8

In: Give fold induction at 5 µM (HMOX1) of the following compound: CC(=O)c1ccc2c(c1)nc(Nc1nc3ccc(OC(F)(F)F)cc3s1)n2C [Example 200]
Out: 22.9

In: Requested read-out fold induction at 5 µM, target or system HMOX1, entry Cn1c(Nc2nc3ccc(OC(F)(F)F)cc3s2)nc2cc(C(=O)NCCOCC(F)F)ccc21 [Example 258]
Out: 24.6

In: # returns recorded fold induction at 5 µM (system: HMOX1) for CCn1c(Nc2nc3ccc(C(F)(F)F)cc3s2)nc2cc(C(=O)NC)ccc21 [Example 180]
Out: 12.4

In: Quick check: fold induction at 5 µM on HMOX1, item COc1cc2c(cc1C(=O)NCCN1CCOCC1)nc(Nc1nc3ccc(OC(F)(F)F)cc3s1)n2C [Example 66] ?
Out: 20.8

In: # value lookup — system HMOX1, readout fold induction at 5 µM, item CCNC(=O)[C@H](C)NC(=O)c1ccc2c(c1)nc(Nc1nc3ccc(OC(F)(F)F)cc3s1)n2C [Example 81]
Out: 17

----------
Test system: HMOX1
testDescription: HMOX1 Protein Assay (immunostaining of HO-1 in NHLF cells, GE InCell 1000)
Format: cell-based
conditionContext: Homo sapiens, fold change above DMSO treated cells, 5 μM compound, 16 h
Experimental: Cell Culture. Normal Human Fibroblast (NHLF), were obtained from Lonza. Cultures of cells were maintained in Fibroblast Growth Medium (FGM-2) medium supplemented with 2% fetal bovine serum (FBS), Fibroblast Growth Factor (hFGF-B) 0.5 mL, Insulin 0.5 mL, gentamicin/amphotericin-B 0.5 mL at 37° C. in a humidified atmosphere of 5% CO2. […] HMOX1 Protein Assay. […] Plate was washed 5× with 1×PBS and read at Hoechst Ex.360 Em. […] Results analyzed using GE InCell Analyzer software. […]
Where a name gives a salt, the structure may show the parent alone.
reportedEndpoint: fold induction at 5 µM
Respond with the number and no other words.

Cn1c(Nc2nc3ccc(OC(F)(F)F)cc3s2)nc2cc(C(=O)NCC3CNCCO3)ccc21 (stereo not drawn) [Example 56, hydrochloride]; 16.1
CN(CCO)C(=O)CNC(=O)c1ccc2c(c1)nc(Nc1nc3ccc(Cl)cc3s1)n2C; 38.6
Cn1c(Nc2nc3ccc(OC(F)(F)F)cc3s2)nc2cc(C(=O)NC3CCCNC3)ccc21 (stereo not drawn) [Example 95, hydrochloride]; 11.2
COCCNC(=O)c1ccc2c(c1)nc(Nc1nc3ccc(S(C)(=O)=O)cc3s1)n2C; 12.4
Cn1c(Nc2nc3ccc(OC(F)(F)F)cc3s2)nc2cc(C(=O)NCCF)ccc21; 11.2

In: Quick check: fold induction at 5 µM of `CCOCCCNC(=O)c1ccc2c(c1)nc(Nc1nc3ccc(OC(F)(F)F)cc3s1)n2C` ?
Out: 22

The measured values listed here are drawn from patent US8759535B2.
